These entries and their values trace back to patent EP0979823B1.

Tested on: J774 cells
EXPERIMENT SUMMARY: ACAT inhibitory activity (anti-foamation activity) in J774 cells
Assay type: cell-based
RUN PARAMETERS: ratio HepG2 / J774
EXPERIMENTAL READOUT: IC50 (HepG2) / IC50 (J774)

Please review the entries below; each comes with its answer.
COMPOUND	IC50 (HepG2) / IC50 (J774)
CCSc1cc(C)nc(SCC)c1NC(=O)CCCCCCSc1nc2c(C)c(Cl)cc(C(C)C)c2o1	1.9
CSc1cc(C)nc(SC)c1NC(=O)CCCCCCCSc1nc2cccc(C(F)(F)F)c2o1	1.1
Cc1cc(SC(C)C)c(NC(=O)CCCCCCSc2nc3c(C)c(Cl)cc(C(C)C)c3o2)c(SC(C)C)n1	7.1
CCSc1cc(C)nc(SCC)c1NC(=O)CSc1nc2ccccc2[nH]1	94.7
CCSc1cc(C)nc(SCC)c1NC(=O)CSc1nc2ccccc2o1	36.0
CC(C)c1cccc(C(C)C)c1NC(=O)CCCCCSc1nc2ccccc2o1 [Control 5, reference compound]	0.8

P: CCSc1cc(C)nc(SCC)c1NC(=O)CCCCCCCCSc1nc2ccccc2o1
Q: CC(C)c1cccc(C(C)C)c1NC(=O)C(C)(C)CCCOc1ccc2c(c1)C=C(c1nccn1C)C(CCc1ccc(F)cc1)O2 (stereo not shown) [Control 1, reference compound]
When their IC50 (HepG2) / IC50 (J774) values are compared, which is larger, P or Q ? Indicate which entry you chose by stating its label.
Q

A: CSc1cc(C)nc(SC)c1NC(=O)CCCCCSc1nc2ccccc2s1
B: CCSc1cc(C)nc(SCC)c1NC(=O)CCCCCSc1nc2ccccc2o1
When their IC50 (HepG2) / IC50 (J774) values are compared, which is larger, A or B ? Indicate which entry you chose by stating its label.
B
